Kindly supply the reported log10 of IC50 values for the records listed here.
target: DPP-1 (Cathepsin C) (Homo sapiens); construct: made in house; assay: DPP-1 Inhibition Assay (in vitro), fluorogenic substrate GR-AMC; assay type: biochemical; settings: recombinant human DPP-1 0.15 nM, 10 uM GR-AMC, pH 7.0, room temperature; average value where tested multiple times; read-out: IC50
Sequence (P53634 25-463): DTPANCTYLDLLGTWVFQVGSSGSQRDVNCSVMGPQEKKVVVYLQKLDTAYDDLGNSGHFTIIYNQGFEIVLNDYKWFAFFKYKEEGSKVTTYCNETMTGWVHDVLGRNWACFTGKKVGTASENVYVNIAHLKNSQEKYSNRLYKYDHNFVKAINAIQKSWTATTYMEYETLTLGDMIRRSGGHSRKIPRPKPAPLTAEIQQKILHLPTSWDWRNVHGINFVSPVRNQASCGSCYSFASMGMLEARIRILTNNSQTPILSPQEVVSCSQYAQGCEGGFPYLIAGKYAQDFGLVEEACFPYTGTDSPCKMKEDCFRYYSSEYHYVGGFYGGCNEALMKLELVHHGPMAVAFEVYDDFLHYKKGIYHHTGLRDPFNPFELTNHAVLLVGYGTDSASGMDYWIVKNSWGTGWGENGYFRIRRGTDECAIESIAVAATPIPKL
Counter-ions that a name gives are not always drawn.
Scale: log10; quantity: IC50; unit before log: nM

NC(C(=O)N1CCC(Cc2ccc(-c3ccccc3)cc2)(C(=O)NCC2CCCCC2)CC1)C(O)c1cccs1 (stereo not drawn) :: 2.91
N#Cc1ccc(CC2(C(=O)OCC3CCCCC3)CCN(C(=O)[C@@H](N)Cc3cccs3)CC2)cc1 [Compound 15, hydrochloride] :: 1.92
N[C@@H](Cc1cccs1)C(=O)N1CCC(Cc2ccccc2C(=O)O)(C(=O)NC2CCCCC2)CC1 [Compound 80, hydrochloride] :: 2.34
COC(=O)C1CCC(NC(=O)C2(c3ccccc3)CCN(C(=O)C(N)Cc3cccs3)CC2)CC1 (stereo not drawn) [Compound 109] :: 1.40

# batch: return log10 of IC50 for each of the 3 molecules below
1. NC(=O)c1ccc(CC2(C(=O)NC3CCC(O)CC3)CCN(C(=O)C(N)Cc3cccs3)CC2)cc1 (stereo not drawn)
2. CC(=O)Nc1ccc(CC2(C(=O)NC3CCCCC3)CCN(C(=O)[C@@H](N)Cc3cccs3)CC2)cc1 [Compound 90, hydrochloride]
3. N[C@@H](Cc1cccs1)C(=O)N1CCC(C(=O)NCC2CCCCC2)(c2cc(C(F)(F)F)cc(C(F)(F)F)c2)CC1 [Compound 133, hydrochloride]

1: 2.52; 2: 1.69; 3: 1.83

Hello, I would appreciate it if you could give log10 of IC50 for each entry below.
1. CN(C)C(=O)c1ccc(CC2(C(=O)NC3CCCCC3)CCN(C(=O)[C@@H](N)Cc3cccs3)CC2)cc1 [Compound 59, hydrochloride]
2. N[C@@H](Cc1cccs1)C(=O)N1CCC(Cc2ccc(-c3nnn[nH]3)cc2)(C(=O)NC2CCCCC2)CC1 [Compound 126, hydrochloride]
3. NC(=O)c1ccc(CC2(C(=O)NCC3CCCCC3)CCN(C(=O)[C@@H](N)Cc3cccs3)CC2)cc1 [Compound 116, hydrochloride]
4. Cc1ccc(C2(C(=O)NC3CCC(O)CC3)CCN(C(=O)C(N)Cc3cccs3)CC2)cc1 (stereo not drawn)
5. NC(Cc1cccs1)C(=O)N1CCC(Cc2ccc(-c3nnn[nH]3)cc2)(C(=O)NC2CCC(O)CC2)CC1 (stereo not drawn)

[1.93, 2.23, 1.70, 2.15, 2.84]

* * *

molecular target: DPP-1 (Cathepsin C) (Homo sapiens); construct: made in house; assay: DPP-1 Inhibition Assay (in vitro), fluorogenic substrate GR-AMC; type: biochemical; details: recombinant human DPP-1 0.15 nM, 10 uM GR-AMC, pH 7.0, room temperature; average value where tested multiple times; read-out: IC50
Where a name gives a salt, the structure may show the parent alone.
Please respond with reported IC50 for every item in the list.
Numbers only, in µM.

Example entries and their recorded answers appear below.
N[C@@H](Cc1cccs1)C(=O)N1CCC(C(=O)N[C@H]2CC[C@H](C(=O)O)CC2)(c2ccccc2)CC1 :: 0.089
N[C@@H](Cc1cccs1)C(=O)N1CCC(Cc2ccc(-c3ccccc3)cc2)(C(=O)NCC2CCOCC2)CC1 [Compound 6, hydrochloride] :: 0.074
CN1CCC(CNC(=O)C2(c3ccccc3)CCN(C(=O)C(N)Cc3cccs3)CC2)CC1 (stereo not shown) :: 0.82
COC(=O)C1CCC(NC(=O)C2(c3ccccc3)CCN(C(=O)C(N)Cc3cccs3)CC2)CC1 (stereo not shown) [Compound 113] :: 0.07
COc1cccc(-c2ccc(CC3(C(=O)NC4CCCCC4)CCN(C(=O)[C@@H](N)Cc4cccs4)CC3)cc2)c1 [Compound 47, hydrochloride] :: 0.034
N#Cc1ccc(CC2(C(=O)NC3CCC(O)CC3)CCN(C(=O)C(N)Cc3cccs3)CC2)cc1 (stereo not shown) :: 0.16

We next turn to a different molecule, shown below.
Entry N[C@@H](Cc1cccs1)C(=O)N1CCC(Cc2ccc(NS(=O)(=O)c3ccccn3)cc2)(C(=O)NC2CCCCC2)CC1 [Compound 87, hydrochloride] has what IC50?
0.02

* * *

biological target: DPP-1 (Cathepsin C) (Homo sapiens); construct: made in house; assay: DPP-1 Inhibition Assay (in vitro), fluorogenic substrate GR-AMC; type: biochemical; conditions: IC50, recombinant human DPP-1 0.15 nM, 10 uM GR-AMC, pH 7.0, room temperature; average value where tested multiple times
measured-quantity: IC50 (µM)
One number for each entry, in µM.

CSC[C@H](N)C(=O)N1CCC(Cc2ccc(-c3ccccc3)cc2)(C(=O)NC2CCCCC2)CC1 :: 0.75
N[C@@H](Cc1cccs1)C(=O)N1CCC(Cc2ccc(-c3ccccc3)cc2)(C(=O)N2CCC3CCCCC3C2)CC1 (stereo partly drawn) :: 1.3
N[C@@H](Cc1c[nH]cn1)C(=O)N1CCC(Cc2cccc(-c3ccccc3)c2)(C(=O)OCC2CCCCC2)CC1 :: 5.8
N#CC1(c2cc(C(F)(F)F)cc(C(F)(F)F)c2)CCN(C(=O)C(N)Cc2cccs2)CC1 (stereo not drawn) :: 3.4
CC[C@H](N)C(=O)N1CCC(Cc2ccc(C(F)(F)F)cc2)(C(=O)OCC2CCCCC2)CC1 :: 5.4

Could you now consider this next compound?
I have this compound here, CC[C@H](N)C(=O)N1CCC(Cc2cccc(-c3ccccc3)c2)(C(=O)OCC2CCCCC2)CC1 , and I need its recorded IC50.
9.5

* * *

target: DPP-1 (Cathepsin C) (Homo sapiens); construct: made in house; assay: DPP-1 Inhibition Assay (in vitro), fluorogenic substrate GR-AMC; type: biochemical; conditions: recombinant human DPP-1 0.15 nM, 10 uM GR-AMC, pH 7.0, room temperature; average value where tested multiple times; read-out: IC50
pIC50: −log10 of the molar value.
I'd appreciate it if you could supply pIC50 values for the items below.

C#CC[C@H](N)C(=O)N1CCC(Cc2ccc(-c3ccccc3)cc2)(C(=O)NC2CCCCC2)CC1 [Compound 35] :: < 4.70
CC[S+]([O-])CCC(N)C(=O)N1CCC(Cc2ccc(-c3ccccc3)cc2)(C(=O)NCC2CCCCC2)CC1 (stereo not drawn) [Compound 107] :: < 4.70

Shifting focus to the compound that follows.
Please look up its pIC50: CS(=O)(=O)CC[C@H](N)C(=O)N1CCC(Cc2ccc(I)cc2)(C(=O)NC2CCCCC2)CC1 [Compound 74]
< 4.70

Data credit: patent EP2544684B1
